- Experimental Target: Lysosomal alpha-glucosidase (Homo sapiens) (UniProt P10253)
- Experiment Description: qHTS Assay for Activators of Human alpha-Glucosidase as a Potential Chaperone Treatment of Pompe Disease; note: potency is the fitted concentration of half-maximal effect; nearly all actives have a fitted effect of over 80% in size
- Assay Context: purified enzyme, 4-MU-alpha-glucoside fluorescence, 20 min; series mostly up to 76.9 µM
About 720 (0.36%) of roughly 200,000 compounds were called active. Inconclusive results (about 8%) are left out. This is one part of the list.
Record form. Attribute: Potency. Fill in for each entry.

Worked cases, answers included:
{"Compound": "COC(=O)C1=CN(Cc2ccc(OC)cc2)C=C(C(=O)OC)C1c1ccsc1", "Experimental Value": "25.1 µM (active)"}
{"Compound": "COCCn1c(N)c(S(=O)(=O)c2cccs2)c2nc3ccccc3nc21", "Experimental Value": "35.5 µM (active)"}
{"Compound": "Fc1ccc(N2N=C(c3cccs3)CC2c2ccccc2)cc1 (stereo unspecified)", "Experimental Value": "31.6 µM (active)"}
{"Compound": "CCCc1cc(=O)oc2c(CN3CCCC3)c(O)c(Cl)cc12", "Experimental Value": "35.5 µM (active)"}
{"Compound": "CCOC(=O)c1sc(-c2ccc(OC)cc2)cc1NC(C)=O", "Experimental Value": "28.2 µM (active)"}

For every item in the list below, what is its measured Potency?
1. OCCN(CCO)c1ccc2ccccc2c1
2. CC(C)CCn1c(N)c(S(=O)(=O)c2cccs2)c2nc3ccccc3nc21
3. Fc1ccc(C2CC(c3cccs3)=NN2c2ccccc2)cc1 (stereo unspecified)
4. CC1CCN(c2oc(-c3cccc4ccccc34)nc2C#N)CC1

stdout:
1: 35.5 µM (active); 2: 35.5 µM (active); 3: 31.6 µM (active); 4: 25.1 µM (active)

For every item in the list below, what is its measured Potency?
1. CCOC(=O)c1c(N)n(C2CC(C)(C)NC(C)(C)C2)c2nc3ccccc3nc12
2. Nc1ccc(-c2nc3ccc(N)cc3[nH]2)cc1
3. Cc1cc(=O)[nH]c2cc(O)ccc12
4. O=c1c2ccccc2[nH]c2ccccc12
5. Nc1c(S(=O)(=O)c2ccccc2)c2nc3ccccc3nc2n1C1CC1
6. CSc1nc2oc3c(c2c2nncn12)CC(C)(C)SC3

stdout:
1: 31.6 µM (active); 2: 39.8 µM (active); 3: 35.5 µM (active); 4: 39.8 µM (active); 5: 28.2 µM (active); 6: 39.8 µM (active)
